These entries and their values trace back to patent US20240343814A1.

- target.desc: Recombinant human his-tagged IGF 1R extracellular domain protein (human) (UniProt P08069)
- assay.remarks: SPR, captured IgG, IGF-1R ECD-his analyte, dissociation pH 7.4
Some binders, each annotated with its measured kon.
Enter your answer as a number in M⁻¹ s⁻¹; do not include the unit.

Some solved entries appear below for comparison.
VRDN-02531 (antibody, V domains shown) VH: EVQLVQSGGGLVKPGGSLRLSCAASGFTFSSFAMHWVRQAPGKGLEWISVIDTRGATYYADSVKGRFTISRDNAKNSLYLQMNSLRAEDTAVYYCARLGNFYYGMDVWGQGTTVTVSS VL: EIVLTQSPGTLSVSPGERATLSCRASHSIGSSLHWYQQKPGQAPRLLIKYASQSLSGIPDRFSGSGSGTDFTLTISRLEPEDFAVYYCHQSSRLPHTFGQGTKVEIK :: 24700
VRDN-02560 (antibody, V domains shown) VH: EVQLVQSGGGLVKPGGSLRLSCAASGFTFSSFHMHWVRQAPGKGLEWISVIDTRGATYYADSVKGRFTISRDNAKNSLYLQMNSLRAEDTAVYYCARLGNFYYHMDVWGQGTTVTVSS VL: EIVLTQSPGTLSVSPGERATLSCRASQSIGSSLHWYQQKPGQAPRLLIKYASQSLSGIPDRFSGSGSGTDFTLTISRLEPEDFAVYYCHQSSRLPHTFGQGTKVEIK :: 3.61e+07

Lab note: next binder to report on.
Q: For the binder VRDN-02566 (antibody, V domains shown) VH: EVQLVQSGGGLVKPGGSLRLSCAASGFTFSSFAMHWVRQAPGKGLEWISVIDTRGATYYADSVKGRFTISRDNAKNSLYLQMNSLRAEDTAVYYCHRLGNFYYGHDVWGQGTTVTVSS VL: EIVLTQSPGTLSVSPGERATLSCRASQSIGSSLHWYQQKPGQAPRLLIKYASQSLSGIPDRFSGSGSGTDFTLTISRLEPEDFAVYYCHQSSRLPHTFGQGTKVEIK , give its reported kon.
Ans: 1.14e+06
